Target: UniProt:P00734
Test: Inhibition of thrombin (unknown origin) using Boc-Val-Pro-Arg-AMC as substrate at 25 uM preincubated for 15 mins followed by substrate addition measured for 10 mins by FRET assay relative to control
recorded metric: inhibition

Query: With UniProt:P00734 as the test system, provide measured inhibition for this compound: CCC(CC)N1C(=O)S/C(=C\c2ccc(C(=O)N[C@@H](CCCNC(=N)N)C(=O)N[C@@H](CCCCN)C(=O)N[C@H](C(N)=O)c3ccccc3)cc2)C1=O
Response: 8%

Query: Report the value of inhibition obtained on UniProt:P00734 for CCC(C)N1C(=O)S/C(=C\c2ccc(C(=O)N[C@@H](CCCNC(=N)N)C(=O)N[C@@H](CCCCN)C(=O)N[C@H](C(N)=O)c3ccccc3)cc2)C1=O (some centres not stated) .
Response: 38.9%

Query: Report inhibition from UniProt:P00734 testing of CCC(CC)CN1C(=O)S/C(=C\c2ccc(C(=O)N[C@@H](CCCNC(=N)N)C(=O)N[C@@H](CCCCN)C(=O)N[C@H](C(N)=O)c3ccccc3)cc2)C1=O
Response: 8.7%

Query: Under UniProt:P00734, report inhibition for CC(C)(C)CCN1C(=O)S/C(=C\c2ccc(C(=O)N[C@@H](CCCNC(=N)N)C(=O)N[C@@H](CCCCN)C(=O)N[C@H](C(N)=O)c3ccccc3)cc2)C1=O
Response: 9.7%

Query: Name the recorded inhibition of C#CCCCN1C(=O)S/C(=C\c2ccc(C(=O)N[C@@H](CCCNC(=N)N)C(=O)N[C@@H](CCCCN)C(=O)N[C@H](C(N)=O)c3ccccc3)cc2)C1=O , assay system UniProt:P00734.
Response: 10.4%

Query: Retrieve inhibition on UniProt:P00734; query CC(C)(C)CN1C(=O)S/C(=C\c2ccc(C(=O)N[C@@H](CCCNC(=N)N)C(=O)N[C@@H](CCCCN)C(=O)N[C@H](C(N)=O)c3ccccc3)cc2)C1=O
Response: 9.7%

Query: Fill: inhibition (UniProt:P00734) for this compound N=C(N)NCCC[C@H](NC(=O)c1ccc(/C=C2\SC(=O)N(CC34CC5CC(CC(C5)C3)C4)C2=O)cc1)C(=O)N[C@@H](CCCCN)C(=O)N[C@H](C(N)=O)c1ccccc1
Response: 6.6%

====

Biological target: Genome polyprotein (West Nile virus)
Sequence (P06935 1371-1501 limits assumed): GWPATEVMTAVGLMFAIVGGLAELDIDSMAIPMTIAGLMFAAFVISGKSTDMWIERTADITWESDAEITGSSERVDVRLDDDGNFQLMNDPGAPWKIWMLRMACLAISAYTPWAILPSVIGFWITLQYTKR
Sequence (P06935 1502-2120 limits assumed): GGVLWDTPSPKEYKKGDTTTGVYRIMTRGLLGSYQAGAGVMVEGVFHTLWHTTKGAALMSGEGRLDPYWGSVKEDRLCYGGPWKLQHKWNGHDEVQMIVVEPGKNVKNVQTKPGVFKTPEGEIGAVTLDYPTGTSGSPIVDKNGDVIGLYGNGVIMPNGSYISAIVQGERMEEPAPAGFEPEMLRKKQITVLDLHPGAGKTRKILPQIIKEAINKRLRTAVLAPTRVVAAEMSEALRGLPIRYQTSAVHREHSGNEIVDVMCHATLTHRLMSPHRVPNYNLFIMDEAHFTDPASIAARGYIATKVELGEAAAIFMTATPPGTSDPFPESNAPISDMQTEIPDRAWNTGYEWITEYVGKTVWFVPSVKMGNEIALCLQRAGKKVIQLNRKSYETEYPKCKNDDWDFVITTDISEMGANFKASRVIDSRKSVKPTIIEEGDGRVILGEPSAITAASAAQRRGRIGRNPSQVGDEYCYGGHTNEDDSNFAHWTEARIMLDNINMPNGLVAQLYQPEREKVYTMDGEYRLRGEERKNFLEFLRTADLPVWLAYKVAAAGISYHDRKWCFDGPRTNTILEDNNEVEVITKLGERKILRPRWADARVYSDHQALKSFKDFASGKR
Assay: Inhibition of WNV NS2B-NS3 protease expressed in Escherichia coli BL21 lambda (DE3) cells using Abz-Gly-Leu-Lys-Arg-Gly-Gly-3-(NO2)Tyr as substrate preincubated for 15 mins followed by substrate addition measured for 15 mins by Dixon plot analysis
recorded metric: Ki (nM)
Your answer should be a plain number; it is taken to be in nM.

Query: Look up and state reported Ki for N=C(N)NCCC[C@H](NC(=O)c1ccc(/C=C2\SC(=O)N(CC3CCCCC3)C2=O)cc1)C(=O)N[C@@H](CCCCN)C(=O)N[C@H](C(N)=O)c1ccccc1
Response: 820

====

Molecular target: Genome polyprotein (West Nile virus)
Test: Competitive inhibition of WNV NS2B-NS3 protease expressed in Escherichia coli BL21 lambda (DE3) cells using Abz-Gly-Leu-Lys-Arg-Gly-Gly-3-(NO2)Tyr as substrate preincubated for 15 mins followed by substrate addition measured for 15 mins by Cheng-Prusoff plot analysis
recorded metric: Ki (µM)
Please respond with the number in µM and leave the unit unwritten.

Query: Return Ki (reported value) for this molecule: N=C(N)NCCC[C@H](NC(=O)c1ccc(/C=C2\SC(=O)N(CC3CCCCC3)C2=O)cc1)C(=O)N[C@@H](CCCCN)C(=O)N[C@H](C(N)=O)c1ccccc1
Response: 1.3

====

Molecular target: Genome polyprotein (West Nile virus)
Experiment: Inhibition of WNV NS2B-NS3 protease expressed in Escherichia coli BL21 lambda (DE3) cells using Abz-Gly-Leu-Lys-Arg-Gly-Gly-3-(NO2)Tyr as substrate at 50 uM preincubated for 15 mins followed by substrate addition measured for 15 mins by FRET assay relative to control
recorded metric: inhibition

Guide cases for inhibition, answers given:
Query: Please report inhibition with Genome polyprotein (West Nile virus) for item N=C(N)NCCC[C@H](NC(=O)c1ccc(/C=C2\SC(=O)N(C3CCCCCC3)C2=O)cc1)C(=O)N[C@@H](CCCCN)C(=O)N[C@H](C(N)=O)c1ccccc1 .
Response: 101%

Query: Identify measured inhibition obtained with Genome polyprotein (West Nile virus) for CC(C)(C)CN1C(=O)S/C(=C\c2ccc(C(=O)O)cc2)C1=O .
Response: 41.1%

Query: # assay system Genome polyprotein (West Nile virus): give inhibition of CCC(CC)N1C(=O)S/C(=C\c2ccc(C(=O)N[C@@H](CCCNC(=N)N)C(=O)N[C@@H](CCCCN)C(=O)N[C@H](C(N)=O)c3ccccc3)cc2)C1=O
Response: 95%

Query: Using Genome polyprotein (West Nile virus) as the test system, report measured inhibition of N=C(N)NCCC[C@H](NC(=O)c1ccc(/C=C2\SC(=O)N(CC3CCCC3)C2=O)cc1)C(=O)N[C@@H](CCCCN)C(=O)N[C@H](C(N)=O)c1ccccc1 .
Response: 98.8%

Query: Report its inhibition with Genome polyprotein (West Nile virus) as the test system: CC(C)N1C(=O)S/C(=C\c2ccc(C(=O)N[C@@H](CCCNC(=N)N)C(=O)N[C@@H](CCCCN)C(=O)N[C@H](C(N)=O)c3ccccc3)cc2)C1=O
Response: 94.4%

Query: Give inhibition; test system Genome polyprotein (West Nile virus); compound CC(C)(C)CCN1C(=O)S/C(=C\c2ccc(C(=O)N[C@@H](CCCNC(=N)N)C(=O)N[C@@H](CCCCN)C(=O)N[C@H](C(N)=O)c3ccccc3)cc2)C1=O
Response: 98.9%

---
Query: Write down the reported inhibition (system: Genome polyprotein (West Nile virus)) of C#CCN1C(=O)S/C(=C\c2ccc(C(=O)N[C@@H](CCCNC(=N)N)C(=O)N[C@@H](CCCCN)C(=O)N[C@H](C(N)=O)c3ccccc3)cc2)C1=O
Response: 93.1%

Query: Given CC(C)CN1C(=O)S/C(=C\c2ccc(C(=O)N[C@@H](CCCNC(=N)N)C(=O)N[C@@H](CCCCN)C(=O)N[C@H](C(N)=O)c3ccccc3)cc2)C1=O , report its inhibition on Genome polyprotein (West Nile virus).
Response: 90.7%

Query: Output reported inhibition of the compound CCC(CC)N1C(=O)S/C(=C\c2ccc(C(=O)O)cc2)C1=O on Genome polyprotein (West Nile virus).
Response: 40.7%

Query: With Genome polyprotein (West Nile virus) as the test system, provide measured inhibition for this compound: N=C(N)NCCC[C@H](NC(=O)c1ccc(/C=C2\SC(=O)N(CCC3CCCCC3)C2=O)cc1)C(=O)N[C@@H](CCCCN)C(=O)N[C@H](C(N)=O)c1ccccc1
Response: 101%

Query: Please look at O=C(O)c1ccc(/C=C2\SC(=O)N(CC3CCCC3)C2=O)cc1 and tell me its recorded inhibition on Genome polyprotein (West Nile virus).
Response: 32.4%

Query: Provide inhibition, recorded with Genome polyprotein (West Nile virus), of N=C(N)NCCC[C@H](NC(=O)c1ccc(/C=C2\SC(=O)N(C3CCCCC3)C2=O)cc1)C(=O)N[C@@H](CCCCN)C(=O)N[C@H](C(N)=O)c1ccccc1
Response: 98%

Query: Tell me its inhibition on Genome polyprotein (West Nile virus): N=C(N)NCCC[C@H](NC(=O)c1ccc(/C=C2\SC(=O)N(CC3CCCCC3)C2=O)cc1)C(=O)N[C@@H](CCCCN)C(=O)N[C@H](C(N)=O)c1ccccc1
Response: 99.6%

Query: State inhibition on Genome polyprotein (West Nile virus). Entry: N=C(N)NCCC[C@H](NC(=O)c1ccc(/C=C2\SC(=O)N(CC3CCC3)C2=O)cc1)C(=O)N[C@@H](CCCCN)C(=O)N[C@H](C(N)=O)c1ccccc1
Response: 95.9%

====

Listed here are compounds together with their documented pIC50.
Target: Genome polyprotein (West Nile virus)
Test: Inhibition of WNV NS2B-NS3 protease expressed in Escherichia coli BL21 lambda (DE3) cells using Abz-Gly-Leu-Lys-Arg-Gly-Gly-3-(NO2)Tyr as substrate preincubated for 15 mins followed by substrate addition measured for 15 mins by FRET assay
Kindly note that pIC50 refers to -log10 of the concentration in mol/L and answer with the value alone.

Query: Given the compound N=C(N)NCCC[C@H](NC(=O)c1ccc(/C=C2\SC(=O)N(C3CCC3)C2=O)cc1)C(=O)N[C@@H](CCCCN)C(=O)N[C@H](C(N)=O)c1ccccc1 , write its reported pIC50.
Response: 5.77

Others:
Query: Find the measured pIC50 of N=C(N)NCCC[C@H](NC(=O)c1ccc(/C=C2\SC(=O)N(CC3CCCC3)C2=O)cc1)C(=O)N[C@@H](CCCCN)C(=O)N[C@H](C(N)=O)c1ccccc1 and report it.
Response: 6.00

Query: Using the record for CC(C)CN1C(=O)S/C(=C\c2ccc(C(=O)N[C@@H](CCCNC(=N)N)C(=O)N[C@@H](CCCCN)C(=O)N[C@H](C(N)=O)c3ccccc3)cc2)C1=O , state its measured pIC50.
Response: 5.20

Query: Specify pIC50 for CC(C)N1C(=O)S/C(=C\c2ccc(C(=O)N[C@@H](CCCNC(=N)N)C(=O)N[C@@H](CCCCN)C(=O)N[C@H](C(N)=O)c3ccccc3)cc2)C1=O and stop.
Response: 5.44

Query: Supply pIC50 value. Item: C#CCN1C(=O)S/C(=C\c2ccc(C(=O)N[C@@H](CCCNC(=N)N)C(=O)N[C@@H](CCCCN)C(=O)N[C@H](C(N)=O)c3ccccc3)cc2)C1=O
Response: 5.63
